Provenance of the data: patent US20130252935A1

tested on: Pseudomonas aeruginosa UC-12120; assay: minimum inhibitory concentration (MIC) testing according to CLSI guidelines, Pseudomonas aeruginosa; type: cell-based; settings: Pseudomonas aeruginosa, UC12120; UC-12120, wild-type, labeled as 1091-05; overnight incubation; lower of duplicate values; read-out: AB-MBT: Pseudomonas aeruginosa 1091-05: MIC (MstRcn)
measuredParameter: MIC (µg/mL)

Here's what some known entries look like.
molecule | measuredParameter | value
CC(C)(O/N=C(\C(=O)N[C@@H]1C(=O)N(S(=O)(=O)O)[C@@H]1CNC(=O)C(=O)NCC1=CC(=O)C(O)=CC1O)c1csc(N)n1)C(=O)O (stereo partly drawn) [Example 41] | MIC | 0.06
CC(C)(O/N=C(\C(=O)N[C@@H]1C(=O)N(S(=O)(=O)O)[C@@H]1CNC(=O)Cc1cccc(NC(=O)c2cc(=O)c(O)cn2O)c1)c1csc(N)n1)C(=O)O [Example 56] | MIC | 0.5
N#C/N=C(\NCc1cc(=O)c(O)cn1O)NC[C@@H]1[C@H](NC(=O)/C(=N\OC2(C(=O)O)CCC2)c2csc(N)n2)C(=O)N1S(=O)(=O)O [Example 63] | MIC | 0.25

(A) C[C@@H](NC(=O)NCc1cc(=O)c(O)cn1O)C(=O)NC[C@@H]1[C@H](NC(=O)/C(=N\OC(C)(C)C(=O)O)c2csc(N)n2)C(=O)N1S(=O)(=O)O [Example 49]
(B) Nc1nc(/C(=N/OC2(C(=O)O)CCC2)C(=O)N[C@@H]2C(=O)N(S(=O)(=O)O)[C@@H]2CNC(=O)NCc2cc(=O)c(O)cn2O)cs1 [Example 30]
(C) Nc1nc(/C(=N/OC2(C(=O)O)CCC2)C(=O)N[C@@H]2C(=O)N(S(=O)(=O)O)[C@@H]2CNC(=O)c2cccc(C(=O)NCc3cc(=O)c(O)cn3O)c2)cs1 [Example 64]
[in] Order by MIC, ascending. Give the labels in the order requested.
[out] B, A, C
